pKi: −log10 of the molar value.
Quick record: pKi, memapsin 2 (Homo sapiens).

Provide the documented pKi with memapsin 2 (Homo sapiens) as the system for CC(C)CC(NC(=O)c1cc(C(=O)NC(C)c2ccccc2)cc(N(C)C(=O)OC2CCOC2)c1)C(O)CC(C)C(=O)NC(C(=O)NC(C)C)C(C)C (centres unmarked)
Sequence (P56817 46-501): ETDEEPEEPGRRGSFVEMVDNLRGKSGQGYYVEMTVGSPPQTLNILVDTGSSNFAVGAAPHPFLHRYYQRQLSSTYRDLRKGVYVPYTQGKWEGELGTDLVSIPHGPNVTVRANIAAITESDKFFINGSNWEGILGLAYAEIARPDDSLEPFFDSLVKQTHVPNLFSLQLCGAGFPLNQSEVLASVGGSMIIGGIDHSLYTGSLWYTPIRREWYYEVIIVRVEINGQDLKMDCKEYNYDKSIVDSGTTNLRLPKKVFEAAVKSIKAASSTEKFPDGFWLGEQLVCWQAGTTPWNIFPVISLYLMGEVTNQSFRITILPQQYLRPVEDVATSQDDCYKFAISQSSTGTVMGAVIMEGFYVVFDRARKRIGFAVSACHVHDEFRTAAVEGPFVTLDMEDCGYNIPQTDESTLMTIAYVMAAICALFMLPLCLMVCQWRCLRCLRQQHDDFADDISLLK
5.70 to 6.39

Further cases:
Please state recorded pKi (tested on memapsin 2 (Homo sapiens)) of CCCN(CCC)C(=O)c1cccc(C(=O)NC(CC(C)C)C(O)CC(C)C(=O)NCC(C)C)c1 (centres unmarked)
5.30 to 5.70

API: value(readout= pKi, system= memapsin 2 (Homo sapiens), query= CCCN(CCC)C(=O)c1cccc(C(=O)NC(Cc2ccc(OC)c(Cl)c2)C(O)CC(C)C(=O)NC(C(=O)NCC(C)C)C(C)C)c1 (centres unmarked) )
5.70 to 6.39

pKi of Cc1csc(CNC(=O)c2cccc(C(=O)N[C@@H](CC(C)C)[C@@H](O)C[C@@H](C)C(=O)N[C@H](C(=O)NCC(C)C)C(C)C)n2)n1 on memapsin 2 (Homo sapiens)?
5.30 to 5.70

Observed pKi on memapsin 2 (Homo sapiens) for CC(C)CNC(=O)C(NC(=O)C(C)CC(O)C(CC(C)C)NC(=O)c1cccc(C(=O)N(C)Cc2cccnc2)c1)C(C)C (centres unmarked) , please.
> 6.39

Lookup: pKi / memapsin 2 (Homo sapiens) / COC(=O)N(C)c1cc(C(=O)NC(C)c2ccccc2)cc(C(=O)NC(CC(C)C)C(O)CC(C)C(=O)NC(C(=O)NCC(C)C)C(C)C)c1 (centres unmarked)
5.70 to 6.39

What pKi appears in the records for this compound with memapsin 2 (Homo sapiens)? CC(C)CNC(=O)C(NC(=O)C(C)CC(O)C(CC(C)C)NC(=O)c1cccc(C(=O)N(C)Cc2ccccc2)c1)C(C)C (centres unmarked)
> 6.39

Write down the reported pKi of Cc1nc(CNC(=O)c2cc(C(=O)NC(CC(C)C)C(O)CC(C)C(=O)NC(C(=O)NC(C)C)C(C)C)cc(N(C)S(C)(=O)=O)c2)c(C)o1 (centres unmarked) , test system: memapsin 2 (Homo sapiens).
> 6.39

All values here come from patent US20080207527A1.
